- tested-system: T1, mouse programmed cell death protein 1 Fc fusion protein (mPD-1-Fc), mPD-1 C60S (aa 25-167) (Mus musculus, UniProt Q02242, stabilised)
- T1 construct: not cleaved; source: Expi293F, purified (Protein A, SEC; dimeric fraction); not shown: Fc (human), C-terminal, kept
- protocol-text: SPR; Carterra LSA; Fab from the ammonium sulfate precipitate of the culture supernatant immobilised on a NiHC200M chip; hPD-1 (1-1024 nM) or mPD-1-Fc (4-1024 nM) as analyte, fourfold dilution series, no regeneration; HBS-EP pH 7.4, 25 °C; medians over the spots of a construct, KD = koff/kon
- experimental-setup: one partner purified

- binder: "toripalimab Fab L.V99A (Fab, V domains shown, as the heavy chain of Sm3; light chain of Sm3 with this change; numbers count from the chain's first residue; source: Brevibacillus, culture supernatant (ammonium sulfate precipitate); not shown: 6xHis, C-terminal, kept; 6xHN, C-terminal, kept) VH: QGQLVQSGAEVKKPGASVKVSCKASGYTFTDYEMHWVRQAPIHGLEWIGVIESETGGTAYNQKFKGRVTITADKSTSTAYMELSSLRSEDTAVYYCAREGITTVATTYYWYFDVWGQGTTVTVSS VL: DVVMTQSPLSLPVTLGQPASISCRSSQSIVHSNGNTYLEWYLQKPGQSPQLLIYKVSNRFSGVPDRFSGSGSGTDFTLKISRVEAEDVGVYYCFQGSHAPLTFGQGTKLEIK"
  measure-unit: "M⁻¹ s⁻¹"
  kon: 23300
- binder: "toripalimab Fab L.F60A (Fab, V domains shown, as the heavy chain of Sm3; light chain of Sm3 with this change; numbers count from the chain's first residue; source: Brevibacillus, culture supernatant (ammonium sulfate precipitate); not shown: 6xHis, C-terminal, kept; 6xHN, C-terminal, kept) VH: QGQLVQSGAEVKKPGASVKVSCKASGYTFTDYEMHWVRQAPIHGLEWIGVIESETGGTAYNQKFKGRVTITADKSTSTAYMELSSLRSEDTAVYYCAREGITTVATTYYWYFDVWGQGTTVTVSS VL: DVVMTQSPLSLPVTLGQPASISCRSSQSIVHSNGNTYLEWYLQKPGQSPQLLIYKVSNRASGVPDRFSGSGSGTDFTLKISRVEAEDVGVYYCFQGSHVPLTFGQGTKLEIK"
  measure-unit: "M⁻¹ s⁻¹"
  kon: 33300
